# Test system: MDA-MB-453
# Protocol description: normalised response (% of control), CellTiter-Glo; higher = more viable cells (100 = DMSO, 0 = benzethonium chloride kill control)
# Condition info: incubation time: 72 h
Test readout: normalised response (%)
The figure you give is taken to be in %; do not add the unit.

Enquiry: Which normalised response is reported with MDA-MB-453 for this entry: CN1CCC(COc2cnc(-c3cccc(Cn4nc(-c5cccc(C#N)c5)ccc4=O)c3)nc2)CC1 (10 nM) ?
Return: 89.2

Enquiry: Which normalised response is reported with MDA-MB-453 for this entry: OC[C@H]1O[C@@H](n2cnc3c2N=CNC[C@H]3O)C[C@@H]1O [Pentostatin] (100 nM) ?
Return: 101

Enquiry: Which normalised response is reported with MDA-MB-453 for this entry: COc1cccc2c1C(=O)c1c(O)c3c(c(O)c1C2=O)C[C@@](O)(C(=O)CO)C[C@@H]3O[C@H]1C[C@H](N)[C@H](O)[C@H](C)O1 [Doxorubicin] (10 nM) ?
Return: 106

Enquiry: Which normalised response is reported with MDA-MB-453 for this entry: COc1cc(Nc2ncc3c(n2)-c2ccc(Cl)cc2C(c2c(F)cccc2OC)=NC3)ccc1C(=O)O [Alisertib] (100 nM) ?
Return: 62

Enquiry: Which normalised response is reported with MDA-MB-453 for this entry: COc1cccc2cc(-c3nc([C@H]4CC[C@H](C(=O)O)CC4)n4ncnc(N)c34)[nH]c12 [OSI-027] (100 nM) ?
Return: 74.2

Enquiry: Which normalised response is reported with MDA-MB-453 for this entry: Nc1ccn([C@@H]2O[C@H](CO)[C@@H](O)[C@@H]2O)c(=O)n1 [Cytarabine] (100 nM) ?
Return: 141

###

# System: CAL-120
# Protocol description: normalised viability (% of control), CellTiter-Blue; higher = more viable cells (about 100 = DMSO control)
# Condition info: 10 nM; incubation time: 72 h
Provide the reported normalised viability of each item.
The figure you give is taken to be in %; do not add the unit.

Enquiry: Which normalised viability is reported with CAL-120 for this entry: Nc1ccn([C@@H]2O[C@H](CO)[C@@H](O)[C@@H]2O)c(=O)n1 [Cytarabine] ?
Return: 95.6

Enquiry: Which normalised viability is reported with CAL-120 for this entry: C=CC[C@@H]1/C=C(\C)C[C@H](C)C[C@H](OC)[C@H]2O[C@@](O)(C(=O)C(=O)N3CCCC[C@H]3C(=O)O[C@H](/C(C)=C/[C@@H]3CC[C@@H](O)[C@H](OC)C3)[C@H](C)[C@@H](O)CC1=O)[C@H](C)C[C@@H]2OC [Tacrolimus] ?
Return: 106

Enquiry: Which normalised viability is reported with CAL-120 for this entry: `CN1CCC(COc2cnc(-c3cccc(Cn4nc(-c5cccc(C#N)c5)ccc4=O)c3)nc2)CC1` ?
Return: 97.3

Enquiry: Which normalised viability is reported with CAL-120 for this entry: C=CCNC1=C2C[C@@H](C)C[C@H](OC)[C@H](O)[C@@H](C)/C=C(\C)[C@H](OC(N)=O)[C@@H](OC)/C=C\C=C(/C)C(=O)NC(=CC1=O)C2=O [Tanespimycin] ?
Return: 74.2

###

# System: CAL-120
# Protocol description: normalised response (% of control), CellTiter-Glo; higher = more viable cells (100 = DMSO, 0 = benzethonium chloride kill control)
# Condition info: incubation time: 72 h
Provide the reported normalised response of each item.
The figure you give is taken to be in %; do not add the unit.

Enquiry: Recorded normalised response of O=C(c1ccc(C(=O)N2CCC(N3CCCC3)CC2)c(Nc2ccccc2)c1)N1CCC(N2CCCC2)CC1 [UNC1215] (300 nM) , please.
Return: 96.7

Enquiry: Recorded normalised response of C=CCNC1=C2C[C@@H](C)C[C@H](OC)[C@H](O)[C@@H](C)/C=C(\C)[C@H](OC(N)=O)[C@@H](OC)/C=C\C=C(/C)C(=O)NC(=CC1=O)C2=O [Tanespimycin] (100 nM) , please.
Return: 85.8

Enquiry: Recorded normalised response of C=CC[C@@H]1/C=C(\C)C[C@H](C)C[C@H](OC)[C@H]2O[C@@](O)(C(=O)C(=O)N3CCCC[C@H]3C(=O)O[C@H](/C(C)=C/[C@@H]3CC[C@@H](O)[C@H](OC)C3)[C@H](C)[C@@H](O)CC1=O)[C@H](C)C[C@@H]2OC [Tacrolimus] (100 nM) , please.
Return: 98.8

Enquiry: Recorded normalised response of CN1CC[C@H](c2c(O)cc(O)c3c(=O)cc(-c4ccccc4Cl)oc23)[C@H](O)C1 [Alvocidib] (100 nM) , please.
Return: 86.2

Enquiry: Recorded normalised response of Nc1ccn([C@@H]2O[C@H](CO)[C@@H](O)[C@@H]2O)c(=O)n1 [Cytarabine] (100 nM) , please.
Return: 101

Enquiry: Recorded normalised response of CS(=O)(=O)c1ccc(C(=O)Nc2ccc(Cl)c(-c3ccccn3)c2)c(Cl)c1 [Vismodegib] (100 nM) , please.
Return: 93.1

Enquiry: Recorded normalised response of Clc1ccc(C(c2ccccc2Cl)C(Cl)Cl)cc1 (configuration not stated) [Mitotane] (100 nM) , please.
Return: 97.8

Data origin: the supplement of paper PMC4862054
